From: patent US8329658B2

# Test system: human hepatoma cell line ET (lub ubi neo/ET)
# assay_overview: Cytotoxicity (colorimetric cell number assay) in HCV replicon ET cell line
# particulars: read-out: Cytotoxicity IC50, concentration inhibiting cell viability by 50%, ET cells, 72 hours
pIC50: −log10 of the molar value.
metric_name: pIC50

Record request: pIC50 value, item C/C=C/C[C@@H](C)[C@@H](O)[C@H]1C(=O)N[C@@H](CC)C(=O)N(C)C(OCc2ccsc2)C(=O)N(C)[C@@H](CC(C)C)C(=O)N[C@@H](C(C)C)C(=O)N(C)[C@@H](CC(C)C)C(=O)N[C@@H](C)C(=O)N[C@H](C)C(=O)N(C)[C@@H](CC(C)C)C(=O)N(C)[C@@H](CC(C)C)C(=O)N(C)[C@@H](C(C)C)C(=O)N1C (stereo partly drawn) [G, 3-[(thiophene-3-yl)methoxy]cyclosporin]
< 4.70

Same question for C/C=C/C[C@@H](C)[C@@H](O)[C@H]1C(=O)N[C@@H](CC)C(=O)N(C)C(OCc2ccc(OC(F)(F)F)cc2)C(=O)N(C)[C@@H](CC(C)C)C(=O)N[C@@H](C(C)C)C(=O)N(C)[C@@H](CC(C)C)C(=O)N[C@@H](C)C(=O)N[C@H](C)C(=O)N(C)[C@@H](CC(C)C)C(=O)N(C)[C@@H](CC(C)C)C(=O)N(C)[C@@H](C(C)C)C(=O)N1C (stereo partly drawn) please.
< 4.70

Also, C/C=C/C[C@@H](C)[C@@H](O)[C@H]1C(=O)N[C@@H](CC)C(=O)N(C)C(OCc2ccoc2)C(=O)N(C)[C@@H](CC(C)C)C(=O)N[C@@H](C(C)C)C(=O)N(C)[C@@H](CC(C)C)C(=O)N[C@@H](C)C(=O)N[C@H](C)C(=O)N(C)[C@@H](CC(C)C)C(=O)N(C)[C@@H](CC(C)C)C(=O)N(C)[C@@H](C(C)C)C(=O)N1C (stereo partly drawn) [Compound E, 3-[(furan-3-yl)methoxy]cyclosporin] please.
< 4.70
